Assay: P-glycoprotein substrates identified in KB-3-1 adenocarcinoma cell line, qHTS therapeutic library screen (AID 1346986); also: nearly all actives have a fitted effect of over 60% in size
Details: KB-3-1 parental cells viability, CellTiter-Glo, 72 h; series mostly up to 44.5 µM
Results filed as inconclusive are left out. The source made the active and inactive calls. Calls follow the shape of the dose curve; as a rule, active = well fitted inhibition curve with a large enough effect; inconclusive = small, poorly fitted or top-dose-only effect; inactive = no such curve, though single readings can be large or run the other way.

{"columns": ["Molecular String", "outcome"],
 "data": [
  ["CCC(=O)NC[C@H](Cc1ccc(OCCc2nc(-c3ccccc3)oc2C)cc1)NC(C)=CC(=O)c1ccc(C(F)(F)F)cc1", "inactive"],
  ["CC[C@H]1OC(=O)[C@H](C)[C@@H](O[C@H]2C[C@@](C)(OC)[C@@H](O)[C@H](C)O2)[C@H](C)[C@@H](O[C@@H]2O[C@H](C)C[C@H](N(C)C)[C@@H]2O)[C@](C)(O)C[C@@H](C)CN(C)[C@H](C)[C@@H](O)[C@]1(C)O", "inactive"],
  ["Nc1ncnc2c1ncn2[C@@H]1O[C@@H](CO)[C@H](O)[C@H]1O", "inactive"]
]}
